target: human ALX receptor (Homo sapiens); assay: Intracellular calcium measurements (FLIPR), agonistic activity in HEK293-hALXR-Gα16 cells; conditions: Fluo-4 calcium FLIPR, normalized to WKYMVm 10 nM
Sequence (P25090 whole entry): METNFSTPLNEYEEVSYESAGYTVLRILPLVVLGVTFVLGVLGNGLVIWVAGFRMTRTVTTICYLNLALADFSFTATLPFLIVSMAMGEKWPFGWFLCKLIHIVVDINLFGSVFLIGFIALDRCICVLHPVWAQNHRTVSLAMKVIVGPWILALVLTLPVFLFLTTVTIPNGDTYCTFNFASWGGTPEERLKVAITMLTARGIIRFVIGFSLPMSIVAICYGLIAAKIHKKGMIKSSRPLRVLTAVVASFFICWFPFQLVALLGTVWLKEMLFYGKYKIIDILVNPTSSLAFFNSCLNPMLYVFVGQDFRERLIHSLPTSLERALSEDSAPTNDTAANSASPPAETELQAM
property.label: EC50 (nM)

CC(C)(C)OC(=O)N1CCC(NC(=O)[C@H]2[C@H](C(=O)Nc3ccc(Br)cc3)[C@@H]3C=C[C@H]2C32CC2)CC1 (racemic)	218

(A) Cc1cc(C)cc(CNC(=O)[C@H]2[C@H](C(=O)NCCCCN3CCCC3)[C@H]3C=C[C@@H]2C32CC2)c1 (racemic)
(B) Cc1cc(C)n(CCC(=O)NCC2C(C(=O)Nc3ccc(Br)cc3)C3C=CC2C32CC2)n1 (stereo not drawn)
Request: # query: argmin of EC50 over A and B Answer format: the label of the selected item.
Response: B
(B: 13 nM, A: 7980 nM)

(1) NC(=O)CCNC(=O)[C@H]1[C@H](C(=O)Nc2ccc(Cl)nc2)[C@@H]2CC[C@H]1C21CC1
(2) O=C(NCCCCN1CCCC1)[C@H]1[C@H](C(=O)Nc2cc(F)c(Br)cc2F)[C@@H]2C=C[C@H]1C21CC1
Request: For the pair 1 and 2 , which entry has the numerically smaller recorded EC50? Answer with the label corresponding to your selection.
Response: 1

----------
Molecular target: human FPRL2 (Homo sapiens, UniProt P25089)
Sequence (P25089 1-353): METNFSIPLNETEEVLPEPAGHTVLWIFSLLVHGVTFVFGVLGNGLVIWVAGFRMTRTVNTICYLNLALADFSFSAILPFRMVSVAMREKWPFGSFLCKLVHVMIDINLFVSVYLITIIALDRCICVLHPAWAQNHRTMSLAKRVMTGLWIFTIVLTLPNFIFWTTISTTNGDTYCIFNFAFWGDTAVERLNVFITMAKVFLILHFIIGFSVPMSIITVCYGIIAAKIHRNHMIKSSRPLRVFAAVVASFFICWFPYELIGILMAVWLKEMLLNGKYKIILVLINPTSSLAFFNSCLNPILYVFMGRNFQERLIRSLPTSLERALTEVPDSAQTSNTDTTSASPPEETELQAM
Experiment: Intracellular calcium measurements (FLIPR), agonistic activity in HEK293-hFPRL2-Gα16 cells
Conditions: Fluo-4 calcium FLIPR, normalized to GLY14-Humanin 100 nM
Procedure: The ALX receptor and FPRL2 agonistic activities of the compounds of formula (I) are determined in accordance with the following experimental method. Intracellular Calcium Measurements: Cells expressing recombinant human FPRL2 and the G-protein Gα16 (HEK293-hFPRL2-Gα16) were grown to 80% confluency in Growing Medium (GM). […] Changes in fluorescence were monitored before and after the addition of test compounds at lex=488 nm and lem=540 nm. […]
property.label: EC50 (nM)

CN(C)CCCNC(=O)[C@H]1[C@H](C(=O)Nc2ncc(Br)s2)[C@@H]2C=C[C@H]1C21CC1 (racemic) [Example 277]	2010
Cc1coc(NC(=O)[C@H]2[C@H](C(=O)NCCCCN3CCCC3)[C@H]3C=C[C@@H]2C32CC2)n1 (racemic) [Example 350]	444
NCC1CCN(C(=O)C2C(C(=O)Nc3ncc(Br)s3)C3CCC2C32CC2)CC1 (centres unmarked) [Example 336]	1490
NCc1ccc(CNC(=O)[C@H]2[C@H](C(=O)Nc3ncc(Br)s3)[C@@H]3C=C[C@H]2C32CC2)cc1 (racemic) [Example 303]	1340
O=C(NCCCCN1CCCC1)[C@H]1[C@H](C(=O)Nc2ncc(Cl)s2)[C@@H]2C=C[C@H]1C21CC1 (racemic) [Example 129]	1190

(1) Cc1nc(CC(=O)NC[C@H]2[C@H](C(=O)Nc3ccc(Br)cc3)[C@@H]3C=C[C@H]2C32CC2)cs1 (racemic) [Example 180]
(2) NCCCCCNC(=O)C1C(C(=O)Nc2ccc(Br)cc2)C2C=CC1C21CC1 (centres unmarked) [Example 1]
(3) COCCCNC(=O)[C@H]1[C@H](C(=O)Nc2ccc(Br)cc2)[C@@H]2C=C[C@H]1C21CC1 (racemic) [Example 53]
(4) COCCN(CCOC)C(=O)C1C(C(=O)Nc2ccc(Br)cc2)C2C=CC1C21CC1 (racemic) [Example 35]
Request: With regard to EC50, arrange the entries in ascending order, please. Answer by listing the labels in the requested order.
Response: 2, 1, 4, 3
(2: 571 nM, 1: 888 nM, 4: 1870 nM, 3: 5030 nM)
